System: clonic convulsions at 111 dB
Experiment: audiogenic seizure test
Type: in vivo
Settings: Mus musculus, ip, 0.5 h; dose at which 40% of mice show no convulsions at 111 dB (14 kHz); DBA/2 mice, intraperitoneal, 30 minutes prior
Threshold-based label: ED50 under 0.08 mg/kg gives criterion met, ED50 not under 0.08 mg/kg gives criterion not met.

Sample answers from the record:
INSERT INTO assay_data (compound, group) VALUES
  ('CCOC(=O)c1ncc2[nH]c3cccc(OCc4ccccc4)c3c2c1COC', 'criterion not met'),
  ('CCOC(=O)c1ncc2[nH]c3cccc(OCc4ccccc4F)c3c2c1COC [Substituent 2-fluoro]', 'criterion met');

In plain terms, does CCOC(=O)c1ncc2[nH]c3cccc(OCc4ccc(F)cc4)c3c2c1COC [Substituent 4-fluoro] come in under 0.08 mg/kg for ED50? criterion not met

Another: CCOC(=O)c1ncc2[nH]c3cccc(OC(C)c4ccccc4)c3c2c1COC (stereo not drawn) [α-methyl] criterion met

Another: CCOC(=O)c1ncc2[nH]c3cccc(OCc4cccc(F)c4)c3c2c1COC [Substituent 3-fluoro] criterion met
